Listed below: inhibition at 1.1 µM values for each entry.
# TESTED_TARGET: endothelin receptor (membrane of smooth muscle tissue of porcine aorta) (Sus scrofa, UniProt Q29010)
# Construct: from tissue; host or cells: porcine aorta smooth muscle, membrane fraction
# Sequence (Q29010 21-427): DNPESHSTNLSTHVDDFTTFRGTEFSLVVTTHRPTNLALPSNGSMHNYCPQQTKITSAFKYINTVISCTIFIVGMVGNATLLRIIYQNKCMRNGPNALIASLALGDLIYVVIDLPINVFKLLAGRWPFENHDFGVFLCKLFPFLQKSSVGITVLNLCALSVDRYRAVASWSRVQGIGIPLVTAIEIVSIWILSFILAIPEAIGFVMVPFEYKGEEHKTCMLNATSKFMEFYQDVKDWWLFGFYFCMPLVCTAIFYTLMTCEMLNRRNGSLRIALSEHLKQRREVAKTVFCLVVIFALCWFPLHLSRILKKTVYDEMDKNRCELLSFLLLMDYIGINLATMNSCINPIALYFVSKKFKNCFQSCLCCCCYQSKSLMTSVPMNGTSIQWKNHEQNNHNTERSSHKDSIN
# PROCEDURE_SUMMARY: Endothelin binding inhibition test (125I-endothelin-1, porcine aorta smooth muscle membrane)
# TEST_CONDITIONS: 1.1 μM test compound (no mark); read-out: 125I-endothelin-1 binding inhibition
Square brackets hold non-standard residues; d marks the D form. Peptide text beside a SMILES is read from it. * marks the point of attachment. Boc = CC(C)(C)OC(=O)*
Number in %, nothing else.

Worked cases, inhibition at 1.1 µM given:
CC(C)C[C@H](NC(=O)N1CCCC1(C)C)C(=O)N[C@H](Cc1c[nH]c2ccccc12)C(=O)N[C@H](Cc1c[nH]c2ccccc12)C(=O)O; 84
CC(C)C[C@H](NC(=O)C=C1SC=CS1)C(=O)N[C@H](Cc1c[nH]c2ccccc12)C(=O)NCCC(=O)O; 63
CC(C)C[C@H](NC(=O)N1CCCCCC1)C(=O)N[C@H](Cc1c[nH]c2ccccc12)C(=O)NCCC(=O)NS(C)(=O)=O; 57

Name the reported inhibition at 1.1 µM value associated with the compound CC(C)C[C@H](NC(=O)N1CCCCCC1)C(=O)N[C@H](Cc1c[nH]c2ccccc12)C(=O)N[C@H](C)CC(=O)O
84

Name the reported inhibition at 1.1 µM value associated with the compound CC(C)C[C@H](NC(=O)OC(C)(C)C)C(=O)N[C@H](Cc1c[nH]c2ccccc12)C(=O)N[C@H](CC(=O)O)C(N)=O [Compound 36] (Boc-Leu-[dW]-[dD]-NH2)
65
